The following compounds are shown together with reported melting point values.

Look over these answered cases.
COMPOUND | ASSAY_READOUT | RESULT_VALUE
COc1ccc2c(C(C)C(=O)O)cnc(Cl)c2c1 (stereo not drawn) | melting point | 167 to 168 °C
O=C(O)c1ccc(NC(=O)C(CC2CCCC2)c2ccc(-c3cccc4ccccc34)cc2)nc1 (stereo not drawn) | melting point | 155 to 158 °C

For the next question, use this compound.
Would you kindly share the measured melting point for COc1ccc2c(c1)C(=S)N(C)CC(CCCl)O2 (stereo not drawn) ?
98 to 100 °C

---

The following compounds are shown together with reported melting point values.

Look over these answered cases.
COMPOUND | ASSAY_READOUT | RESULT_VALUE
CC(O)CCc1ccc2c(c1)C(=O)c1ccccc1-2 (configuration not stated) | melting point | 77 to 78 °C
CC(=O)Nc1ccc(N2CCC(O)CC2)cc1 | melting point | 191 °C
c1ccc2c(c1)CC(CN1CCN(c3ccc4c(c3)CCO4)CC1)C2 | melting point | 180 to 182 °C
OCC(O)CN1CCN(c2ncccn2)CC1 (configuration not stated) | melting point | 118 to 120 °C
CCOC(=O)Oc1ccc(/C=C/C(=O)O)cc1 | melting point | 173 to 176 °C

Would you kindly share the measured melting point for CCC(C)(Oc1ccc(F)cc1F)C(=O)Nc1nc(CC(=O)O)cs1 (configuration not stated) ?
148 to 149 °C

Also need "N#Cc1ccc(CN(N)c2ccc(Br)cc2)cc1" , thanks.
114 °C

Also need "CC(C)c1cc(C(C)C)cc(N(Cc2cccc(NC(=N)c3cccs3)c2)C(=O)CCc2cc(C(C)C)c(O)c(C(C)C)c2)c1" , thanks.
144 to 145 °C

Also need "O=C1Nc2ccccc2Cc2sccc21" , thanks.
225 to 236 °C

Also need "CCc1cccc2c(=O)c3c(cnn3C)[nH]c12" , thanks.
254 °C

Also need "CC(C)(C(=O)c1ccc(SCCO)cc1)N1CCOCC1" , thanks.
62 to 64 °C

Also need "CCc1cc(OC)cc(=O)o1" , thanks.
54 to 55 °C
